Data credit: patent US11208642B2

Measurement Target: GcoA (Amycolatopsis sp., UniProt P0DPQ7, H210Q)
Sequence (P0DPQ7 whole entry H210Q): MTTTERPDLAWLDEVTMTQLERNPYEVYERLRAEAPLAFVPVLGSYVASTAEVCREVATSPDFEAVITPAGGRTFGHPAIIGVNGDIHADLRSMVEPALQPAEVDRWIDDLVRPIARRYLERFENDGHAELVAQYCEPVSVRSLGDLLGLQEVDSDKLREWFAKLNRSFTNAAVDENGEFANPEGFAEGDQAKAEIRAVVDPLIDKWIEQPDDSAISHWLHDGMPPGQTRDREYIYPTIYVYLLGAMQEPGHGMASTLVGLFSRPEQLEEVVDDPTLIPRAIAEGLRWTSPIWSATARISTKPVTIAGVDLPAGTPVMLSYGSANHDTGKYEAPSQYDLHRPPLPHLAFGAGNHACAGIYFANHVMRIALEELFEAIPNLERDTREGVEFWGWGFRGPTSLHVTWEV
Assay Explanation: Syringol binding to wild-type GcoA (KD)
Reported Metric: pKd
Numbers only, as −log10 of the molar value.

Prompt: Reported pKd, compound COc1cccc(OC)c1O [syringol, 2,6-dimethoxyphenol] : ____
Completion: 5.55

---

Measurement Target: GcoA-F169A (Amycolatopsis sp., UniProt P0DPQ7, F169A/H210Q)
Construct: GST (N, cleaved yes)
Sequence (P0DPQ7 whole entry F169A/H210Q): as the sequence (P0DPQ7 whole entry H210Q) above, with F169A counted along it
Assay Explanation: Substrate dissociation constant (KD) by UV/vis spin-state titration
Reported Metric: Kd (µM)
Give bare numbers, in µM.

# count of solved cases: 2
COc1cccc(O)c1O ... 9.5
COc1cccc(OC)c1O ... 1.7

Query compound follows.
Prompt: Which Kd value belongs to COc1ccccc1O ?
Completion: 7.1
